target: PRMT5 (Homo sapiens); construct: purchased Viva (custom protein); assay: PRMT5 biochemical IC50 assay with SAM as cofactor; conditions: PRMT5, SAM as cofactor; read-out: SAM IC50
Sequence (O14744 whole entry): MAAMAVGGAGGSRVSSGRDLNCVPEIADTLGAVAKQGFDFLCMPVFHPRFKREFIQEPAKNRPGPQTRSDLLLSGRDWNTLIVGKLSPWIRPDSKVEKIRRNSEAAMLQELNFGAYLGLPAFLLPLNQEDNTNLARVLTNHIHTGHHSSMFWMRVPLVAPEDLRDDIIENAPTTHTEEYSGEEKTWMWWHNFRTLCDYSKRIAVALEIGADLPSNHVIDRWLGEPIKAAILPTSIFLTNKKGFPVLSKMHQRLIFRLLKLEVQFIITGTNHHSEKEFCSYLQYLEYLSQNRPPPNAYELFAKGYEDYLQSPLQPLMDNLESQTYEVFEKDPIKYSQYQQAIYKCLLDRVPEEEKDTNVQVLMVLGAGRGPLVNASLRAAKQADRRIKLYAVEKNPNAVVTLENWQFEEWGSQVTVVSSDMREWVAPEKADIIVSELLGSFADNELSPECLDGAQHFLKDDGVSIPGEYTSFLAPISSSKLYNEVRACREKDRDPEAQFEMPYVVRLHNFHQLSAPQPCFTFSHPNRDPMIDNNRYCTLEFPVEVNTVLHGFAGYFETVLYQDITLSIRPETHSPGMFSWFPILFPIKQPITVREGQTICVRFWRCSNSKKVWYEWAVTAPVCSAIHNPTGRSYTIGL
Sequence (Q9BQA1 whole entry partner): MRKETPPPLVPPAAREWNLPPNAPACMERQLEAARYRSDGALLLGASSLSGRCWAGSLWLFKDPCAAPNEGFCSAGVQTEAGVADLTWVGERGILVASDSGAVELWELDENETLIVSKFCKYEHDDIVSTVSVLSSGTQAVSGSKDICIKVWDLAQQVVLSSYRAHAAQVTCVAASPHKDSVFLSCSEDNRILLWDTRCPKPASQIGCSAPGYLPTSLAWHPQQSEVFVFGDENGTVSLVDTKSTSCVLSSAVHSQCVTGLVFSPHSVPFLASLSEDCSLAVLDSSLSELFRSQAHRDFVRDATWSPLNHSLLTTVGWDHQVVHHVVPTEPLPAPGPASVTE
Answer each item with its documented IC50.

Here are 5 compounds together with their reported answers.
COMPOUND: Cc1cc(NC(=O)C(=O)N2CCCCC2C2CCCC2)cnc1N (centres unmarked)
IC50: > 500 nM

COMPOUND: CC1CCC2CCCCC2N1C(=O)C(=O)Nc1cncc(C(N)=O)c1 (centres unmarked)
IC50: 50 to 500 nM

COMPOUND: C[C@@H]1CC[C@@H](c2ccc(N)cn2)N(C(=O)C(=O)Nc2cncc(C(N)=O)c2)C1 (single isomer, unassigned)
IC50: 50 to 500 nM

COMPOUND: COc1ncc(NC(=O)C(=O)N2C[C@H](C)CC[C@H]2c2ccc(NS(C)(=O)=O)nc2)cc1C(N)=O (single isomer, unassigned)
IC50: > 500 nM

COMPOUND: Cc1ccc2cc([C@@H]3CC[C@@H](C)CN3C(=O)C(=O)Nc3cncc(C(N)=O)c3)ccc2n1 (racemic)
IC50: 50 to 500 nM

Provide the reported IC50 of each entry below, same order.
1. Cc1cncc(NC(=O)C(=O)N2CCCC[C@H]2c2cccc(C)c2)c1 (single isomer, unassigned)
2. CCc1cc(NC(=O)C(=O)N2C[C@@H](C)CC[C@@H]2c2cc(Cl)cc(OCCN(C)C)c2)cnc1N
3. Cc1cc(NC(=O)C(=O)N2C[C@H](C)CC[C@H]2c2cccc3[nH]ncc23)cnc1N (single isomer, unassigned) [Compound 785]
4. CCc1cc(NC(=O)C(=O)N2C[C@@H](C)CC[C@@H]2c2ccc(N3CCN(C(C)C)CC3)c(C)c2)cnc1N (racemic)
5. CCc1cc(NC(=O)C(=O)N2C[C@H](C)CC[C@H]2c2ccc3sc(CCN(C)C)nc3c2)cnc1N (single isomer, unassigned)
6. C[C@@H]1CC[C@@H](c2ccc3[nH]ncc3c2)N(C(=O)C(=O)Nc2cnc(N)c(C3CC3)c2)C1 (single isomer, unassigned)
7. CCc1cc(NC(=O)C(=O)N2C[C@@H](C)CC[C@@H]2c2cccc(OC[C@@H]3CCCN3C)c2)cnc1N
8. COCCc1nc2cc([C@@H]3CC[C@@H](C)CN3C(=O)C(=O)Nc3cnc(N)c(C4CC4)c3)ccc2s1 (single isomer, unassigned)

**A:**
["> 500 nM", "< 50 nM", "50 to 500 nM", "< 50 nM", "> 500 nM", "> 500 nM", "50 to 500 nM", "50 to 500 nM"]

====

molecular target: PRMT5 (Homo sapiens); construct: purchased Viva (custom protein); test: PRMT5 biochemical IC50 assay with no cofactor; conditions: PRMT5, no cofactor; read-out: No Cofactor/rel IC50
Answer each item with its documented IC50.

COMPOUND: C[C@@H]1CC[C@@H](c2ccc3sc(C(F)(F)F)nc3c2)N(C(=O)C(=O)Nc2cncc(C(N)=O)c2)C1 (single isomer, unassigned)
IC50: > 500 nM
--
COMPOUND: Cc1cc(NC(=O)C(=O)N2C[C@H](C)CC[C@@H]2C2CCCCC2)cnc1N (racemic)
IC50: > 500 nM
--
COMPOUND: Cc1cc(NC(=O)C(=O)N2C[C@H](C)CC[C@H]2C2CCCNC2)cnc1N (mixture of isomers)
IC50: > 500 nM
--
COMPOUND: Cc1ncc(NC(=O)C(=O)N2C[C@@H](C)CC[C@@H]2c2ccc3c(c2)CCC(=O)N3)cc1Cl (single isomer, unassigned)
IC50: > 500 nM
--
COMPOUND: Cc1cc(NC(=O)C(=O)N2C[C@H](C)CC[C@H]2c2cnc3scnc3c2)cnc1N (racemic)
IC50: 50 to 500 nM

**Q:** Return IC50 measured with PRMT5 (Homo sapiens) given this compound: Cc1cc(NC(=O)C(=O)N2C[C@@H](C)C(F)(F)C[C@@H]2c2ccc(F)c(F)c2)cnc1N (single isomer, unassigned)
**A:** < 50 nM
